Each recorded value in this set is attributed to ChEMBL document CHEMBL1157354.

# System: CCRF-CEM
# assay.method.text: Cytotoxicity against folyl-poly-glutamate synthetase-deficient human CCRF-CEM cells in absence of thymidine and hypoxanthine
Would you kindly list IC50 for each of these molecules?

Request: What value of IC50 has been reported for the following molecule? Nc1nc(N)c(CCCCc2ccc(C(=O)N[C@@H](CCC(=O)O)C(=O)O)cc2)c(=O)[nH]1 [DIDEAZAACYCLOTETRAHYDROFOLIC ACID]
Result: > 10 µM

Request: Try Nc1nc(N)c(CCCC(C(=O)C(F)(F)F)c2ccc(C(=O)N[C@@H](CCC(=O)O)C(=O)O)cc2)c(=O)[nH]1 (some centres undefined) next.
Result: > 10 µM

Request: And the next one, "CS[C@@H](CCCc1c(N)nc(N)[nH]c1=O)c1ccc(C(=O)N[C@@H](CCC(=O)O)C(=O)O)cc1" ?
Result: 5 µM

Request: Same question, "CS[C@H](CCCc1c(N)nc(N)[nH]c1=O)c1ccc(C(=O)N[C@@H](CCC(=O)O)C(=O)O)cc1" this time
Result: 5.5 µM

Request: For "Nc1nc(N)c(CCC[C@H](O)c2ccc(C(=O)N[C@@H](CCC(=O)O)C(=O)O)cc2)c(=O)[nH]1" then?
Result: > 10 µM

Request: Another molecule to check: Nc1nc2c(c(=O)[nH]1)C[C@@H](CCc1ccc(C(=O)N[C@@H](CCC(=O)O)C(=O)O)cc1)CN2 [LOMETREXOL]
Result: > 10 µM

Request: What about "CO[C@H](CCCc1c(N)nc(N)[nH]c1=O)c1ccc(C(=O)N[C@@H](CCC(=O)O)C(=O)O)cc1" ?
Result: 6 µM

Request: Ok, now "Nc1nc(N)c(CCC[C@@H](O)c2ccc(C(=O)N[C@@H](CCC(=O)O)C(=O)O)cc2)c(=O)[nH]1"
Result: > 10 µM

Request: Now give it for "CO[C@@H](CCCc1c(N)nc(N)[nH]c1=O)c1ccc(C(=O)N[C@@H](CCC(=O)O)C(=O)O)cc1" too.
Result: > 10 µM
